Each entry below carries its recorded inhibition.
# System: Ran GTPase (GTP-bound) - importin-beta complex
# experimental-details: disruptors of Ran-importin-beta complex formation – biochemical, FRET, CFP-Ran, YFP-importin-beta, homogeneous, primary screen (AID 2216);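 further: 0% = DMSO wells and 100% = Ran loaded with GDP instead of GTP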
# condition-parameters: cell-free CFP-Ran/YFP-importin-beta FRET ratio; active compounds read high; concentration not given here
Screen size: about 300,000 compounds; about 3,300 (1.1%) were called active. Not shown: some 6% with an inconclusive outcome. The entries come from a sample that favours actives as a whole.
quantity: inhibition

[
  {
    "molecule": "O=c1cc(CN2CCN(S(=O)(=O)/C=C/c3ccccc3)CC2)c2ccc(O)cc2o1",
    "tested-target": "Ran GTPase (GTP-bound) - importin-beta complex",
    "measured-result": "21% (active)"
  },
  {
    "molecule": "COc1ccc(OC)c(S(=O)(=O)N2CCCC(C(=O)N3CCC(C(N)=O)CC3)C2)c1 (centres undefined)",
    "tested-target": "Ran GTPase (GTP-bound) - importin-beta complex",
    "measured-result": "6.32% (inactive)"
  },
  {
    "molecule": "CC(=O)c1cc(C#N)c(N2CC(C)OC(C)C2)nc1C (centres undefined)",
    "tested-target": "Ran GTPase (GTP-bound) - importin-beta complex",
    "measured-result": "25.3% (active)"
  },
  {
    "molecule": "COc1ccc(-c2cc3ccc(OCc4nn[nH]n4)cc3oc2=O)cc1",
    "tested-target": "Ran GTPase (GTP-bound) - importin-beta complex",
    "measured-result": "-0.255% (inactive)"
  },
  {
    "molecule": "CCOc1ccc(CCNC(=O)COC(=O)c2c(OC)cccc2OC)cc1OCC",
    "tested-target": "Ran GTPase (GTP-bound) - importin-beta complex",
    "measured-result": "1.08% (inactive)"
  },
  {
    "molecule": "CCOc1cc2ccccc2cc1C(=O)Nc1ccccn1",
    "tested-target": "Ran GTPase (GTP-bound) - importin-beta complex",
    "measured-result": "3.29% (inactive)"
  },
  {
    "molecule": "CCN(CC(=O)Nc1c(F)cccc1F)C(=O)C1CCC1",
    "tested-target": "Ran GTPase (GTP-bound) - importin-beta complex",
    "measured-result": "0.154% (inactive)"
  },
  {
    "molecule": "CN(C)CCCNC(=O)c1ccc2[nH]c3ccccc3c2c1",
    "tested-target": "Ran GTPase (GTP-bound) - importin-beta complex",
    "measured-result": "-2.02% (inactive)"
  },
  {
    "molecule": "COc1cccc(NC(=O)CSc2nccn(-c3ccc4c(c3)OCCO4)c2=O)c1",
    "tested-target": "Ran GTPase (GTP-bound) - importin-beta complex",
    "measured-result": "-2.91% (inactive)"
  },
  {
    "molecule": "Cc1ccc2nnn(Cc3cccc(C(C)(C)C)c3O)c2c1",
    "tested-target": "Ran GTPase (GTP-bound) - importin-beta complex",
    "measured-result": "9.31% (inactive)"
  },
  {
    "molecule": "O=S(=O)(NCCCc1ccccc1)c1ccc(Br)cc1",
    "tested-target": "Ran GTPase (GTP-bound) - importin-beta complex",
    "measured-result": "-1.87% (inactive)"
  },
  {
    "molecule": "NC(=O)c1cc2ccccc2o/c1=N/NC(=O)c1cccc(F)c1",
    "tested-target": "Ran GTPase (GTP-bound) - importin-beta complex",
    "measured-result": "-7.02% (inactive)"
  },
  {
    "molecule": "Cc1ccc(Cn2c(=N)c(S(=O)(=O)c3ccc(C)cc3)cc3c(=O)n4ccccc4nc32)cc1",
    "tested-target": "Ran GTPase (GTP-bound) - importin-beta complex",
    "measured-result": "1.91% (inactive)"
  },
  {
    "molecule": "COc1ccc2c(CN3CCN(S(=O)(=O)c4cccs4)CC3)cc(=O)oc2c1",
    "tested-target": "Ran GTPase (GTP-bound) - importin-beta complex",
    "measured-result": "-2.73% (inactive)"
  },
  {
    "molecule": "CC1CC(C)(C)CC2(C1)NC(=O)N(CC(=O)Nc1nccs1)C2=O (centres undefined)",
    "tested-target": "Ran GTPase (GTP-bound) - importin-beta complex",
    "measured-result": "-1.02% (inactive)"
  },
  {
    "molecule": "O=C(N[C@@H](Cc1ccccc1)C(=O)OCc1ccccc1)c1nc[nH]c1C(=O)NC1CCNCC1",
    "tested-target": "Ran GTPase (GTP-bound) - importin-beta complex",
    "measured-result": "1.19% (inactive)"
  },
  {
    "molecule": "Cc1ccn2c(=O)nc(SCC(=O)NCc3ccc4c(c3)OCO4)nc2c1",
    "tested-target": "Ran GTPase (GTP-bound) - importin-beta complex",
    "measured-result": "-2.18% (inactive)"
  },
  {
    "molecule": "CC(=O)c1cc(C#N)c(SCC(=O)C(C)(C)C)nc1C",
    "tested-target": "Ran GTPase (GTP-bound) - importin-beta complex",
    "measured-result": "-3.56% (inactive)"
  },
  {
    "molecule": "O=C(c1ccc(F)cc1)N1CCC(C(=O)N2CCN(S(=O)(=O)c3ccccc3Br)CC2)CC1",
    "tested-target": "Ran GTPase (GTP-bound) - importin-beta complex",
    "measured-result": "4.17% (inactive)"
  },
  {
    "molecule": "O=c1oc2cc(O)ccc2cc1-c1ccc(F)cc1",
    "tested-target": "Ran GTPase (GTP-bound) - importin-beta complex",
    "measured-result": "149% (active)"
  },
  {
    "molecule": "COc1ccc(C(C#N)(CC(=O)O)c2cnccn2)cc1OC (centres undefined)",
    "tested-target": "Ran GTPase (GTP-bound) - importin-beta complex",
    "measured-result": "5.73% (inactive)"
  },
  {
    "molecule": "O=c1c(-c2ccccc2)coc2cc(O)ccc12",
    "tested-target": "Ran GTPase (GTP-bound) - importin-beta complex",
    "measured-result": "-0.924% (inactive)"
  },
  {
    "molecule": "CCOCCCNC(=O)c1cc2c(=O)n3ccccc3nc2s1",
    "tested-target": "Ran GTPase (GTP-bound) - importin-beta complex",
    "measured-result": "-3.33% (inactive)"
  },
  {
    "molecule": "Cc1cc(C)c(S(=O)(=O)NCC(c2ccc3c(c2)OCO3)N2CCOCC2)c(C)c1 (centres undefined)",
    "tested-target": "Ran GTPase (GTP-bound) - importin-beta complex",
    "measured-result": "2.24% (inactive)"
  },
  {
    "molecule": "CCN(CC)c1ccc2cc(C(=O)O)c(=O)oc2c1",
    "tested-target": "Ran GTPase (GTP-bound) - importin-beta complex",
    "measured-result": "153% (active)"
  },
  {
    "molecule": "CCN(CCCNC(=O)c1ccc2c(c1)NC(=O)CN2C)c1cccc(C)c1",
    "tested-target": "Ran GTPase (GTP-bound) - importin-beta complex",
    "measured-result": "20.7% (active)"
  },
  {
    "molecule": "CCOC(=O)c1cc2cc3ccccc3cc2oc1=O",
    "tested-target": "Ran GTPase (GTP-bound) - importin-beta complex",
    "measured-result": "3.3% (inactive)"
  },
  {
    "molecule": "CCN(CC(=O)Nc1c(F)cccc1F)C(=O)c1ccc(-c2ccccc2)cc1",
    "tested-target": "Ran GTPase (GTP-bound) - importin-beta complex",
    "measured-result": "-2.68% (inactive)"
  },
  {
    "molecule": "COc1cc2c(cc1OC)CN(CC(=O)Nc1ccc(F)cc1)CC2",
    "tested-target": "Ran GTPase (GTP-bound) - importin-beta complex",
    "measured-result": "16.9% (active)"
  },
  {
    "molecule": "O=C1c2ccccc2S(=O)(=O)N1CC(O)Cn1c2ccccc2c2ccccc21 (centres undefined)",
    "tested-target": "Ran GTPase (GTP-bound) - importin-beta complex",
    "measured-result": "3.48% (inactive)"
  },
  {
    "molecule": "CCN1C(=O)[C@H]2[C@@H](c3ccc(-c4ccc(F)cc4)cc3)N[C@@](Cc3ccccc3)(C(=O)OC)[C@H]2C1=O",
    "tested-target": "Ran GTPase (GTP-bound) - importin-beta complex",
    "measured-result": "-2.12% (inactive)"
  },
  {
    "molecule": "O=C(COC(=O)c1ccccn1)NNC(=O)c1ccc([N+](=O)[O-])cc1",
    "tested-target": "Ran GTPase (GTP-bound) - importin-beta complex",
    "measured-result": "4.26% (inactive)"
  },
  {
    "molecule": "CCN(CC)c1ccc2oc(=O)c(C)nc2c1",
    "tested-target": "Ran GTPase (GTP-bound) - importin-beta complex",
    "measured-result": "-87.9% (inactive)"
  },
  {
    "molecule": "O=C(NCC1(N2CCCCC2)CCCCC1)c1ccc(NS(=O)(=O)c2ccc(F)cc2)cc1",
    "tested-target": "Ran GTPase (GTP-bound) - importin-beta complex",
    "measured-result": "-1.33% (inactive)"
  },
  {
    "molecule": "CS(=O)(=O)N(CC(O)Cn1c2ccccc2c2ccccc21)c1cccc2ccccc12 (centres undefined)",
    "tested-target": "Ran GTPase (GTP-bound) - importin-beta complex",
    "measured-result": "2.16% (inactive)"
  },
  {
    "molecule": "NC(=O)CCN1CCN(S(=O)(=O)/C=C/c2ccccc2)CC1",
    "tested-target": "Ran GTPase (GTP-bound) - importin-beta complex",
    "measured-result": "3.03% (inactive)"
  },
  {
    "molecule": "Cc1ccc(NC(=O)CN2CCc3ccccc3C2)cc1",
    "tested-target": "Ran GTPase (GTP-bound) - importin-beta complex",
    "measured-result": "-0.397% (inactive)"
  },
  {
    "molecule": "Cc1ccc(-n2ncc3c(=O)n(-c4ccc(C)c(C)c4)c(-c4ccco4)nc32)cc1",
    "tested-target": "Ran GTPase (GTP-bound) - importin-beta complex",
    "measured-result": "-0.295% (inactive)"
  },
  {
    "molecule": "Clc1cccc(Cl)c1OCCOCCNCc1ccccc1",
    "tested-target": "Ran GTPase (GTP-bound) - importin-beta complex",
    "measured-result": "0.589% (inactive)"
  },
  {
    "molecule": "Cc1cc(C)c(S(=O)(=O)n2cc(C(C)C(N)C(=O)O)c3ccccc32)c(C)c1 (centres undefined)",
    "tested-target": "Ran GTPase (GTP-bound) - importin-beta complex",
    "measured-result": "-3.39% (inactive)"
  },
  {
    "molecule": "CCCCc1ccc(NC(=S)NCCCN2CCOCC2)cc1",
    "tested-target": "Ran GTPase (GTP-bound) - importin-beta complex",
    "measured-result": "1.19% (inactive)"
  },
  {
    "molecule": "COc1ccc(C(=O)N/N=c2\\oc3ccccc3cc2C(N)=O)cc1",
    "tested-target": "Ran GTPase (GTP-bound) - importin-beta complex",
    "measured-result": "4.55% (inactive)"
  },
  {
    "molecule": "CCOC(=O)c1c(-c2ccccc2)oc2ccc(OCC(N)=O)cc12",
    "tested-target": "Ran GTPase (GTP-bound) - importin-beta complex",
    "measured-result": "0.113% (inactive)"
  },
  {
    "molecule": "Cc1ccc(C(=O)CN2C(=O)NC3(CCc4ccccc43)C2=O)c(C)c1 (centres undefined)",
    "tested-target": "Ran GTPase (GTP-bound) - importin-beta complex",
    "measured-result": "-0.128% (inactive)"
  }
]
